B1: library; a variant is named by its letters at N, in order (parent)
chain: GCUGUCACCGGUGUAUUACCCUAGUGGUCGACCGGUCUGAUGAGUCUNNNNNNAGACGAAACAGC

# Variants of: B1
# assay-details: normalized RNA/DNA level with ligand (relative to sTRSVctl = 100) (log10 (% of sTRSVctl)); ligand: hypoxanthine (xanthine aptamer); higher = less ribozyme self-cleavage, higher mRNA level
# particulars: ligand concentration (+) RNA-Seq: 5 mM, HEK293T, reporter: mCherry (pCS4076), ligand present: yes
quantity-kind: normalized RNA/DNA level with ligand (log10)
Output: the number by itself.

{"mutation-key": "GCCCCG", "endpoint-value": 1.92}
{"mutation-key": "CUGUAC", "endpoint-value": 1.93}
{"mutation-key": "GCCCAU", "endpoint-value": 1.93}

Which measured normalized RNA/DNA level with ligand (log10) value corresponds to CCAUGU ?
1.91

Reported normalized RNA/DNA level with ligand (log10) for UAACUC : what is it?
2.01

Endpoint output: normalized RNA/DNA level with ligand (log10) of AAGAAA . Value?
1.91

Which normalized RNA/DNA level with ligand (log10) is reported for this variant? ACAUAG
1.84

The reported numbers originate from the supplement of paper PMC6757056.
